test: Cmax in Rattus norvegicus Sprague-Dawley (rat) at 10 mg/kg, po; assay type: ADME, organism-based; parameters: dose 10 mg/kg, route oral; details: in vivo
result.type: Cmax (ng/mL)
I only need the number, in ng/mL, no unit after it.

**Query** Return the recorded Cmax value; entry: COc1ccc(-c2coc3cc(O)ccc3c2=O)cc1OC [CLADRIN]
**Result** 44.8

---

assay: Stability of the compound in Rattus norvegicus (rat) plasma at 62.5 ng/ml after three 24 hr cycles of freeze-thaw on storing at -80 degC; type: ADME, cell-free; settings: read-out: Stability
result.type: remaining at 24 h, 62.5 ng/ml (%)
Provide the reading as a plain figure in %.

[[record]]
compound = "COc1ccc(-c2coc3cc(O)ccc3c2=O)cc1OC"
value = 98.5


**Query** Find the measured remaining at 24 h, 62.5 ng/ml of Oc1ccc([C@H]2COc3cc(O)ccc3C2)cc1 and report it.
**Result** 94.6

meta.source: ChEMBL document CHEMBL3045906
